Item-by-item account of amyloid nucleation score
Assay: amyloid nucleation score (Sup35N fusion, yeast selection) (log enrichment); library NNK1; higher = more nucleation; inactive = no reads after selection;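 also: zero at mode of non-aggregating sequences after 7 days selection at 30°C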
outcome measure: amyloid nucleation score

INSERT INTO measurements (substance, measurement) VALUES
  ('VDMNAEKTSSDERLWERRRT', 0.606),
  ('FFAIVGRKVCRGSIHFWSIT', 1.23),
  ('SYRRAVHGVVVQQKRDEFVL', -0.026),
  ('SVGGWLSYRSDV', -0.901),
  ('APDRNDHDKLCCLCDNWSAL', 0.056),
  ('LFKNRVRLLLHERSLLPVII', 0.469),
  ('RMYITMSQSRKVVICVMMVM', -0.164),
  ('KYLSYTVVCGLTNDSWHLMH', -0.196),
  ('FSRFWISSKHT', -1.33),
  ('CIFFVNTGHGYLWQDYAHSN', 3.58),
  ('IYNGWQIRGNVNMMLCVCEW', 6.57),
  ('SYAGYGTNK', -0.242),
  ('LCNLGMLRLSGMENRINRVG', 1.29),
  ('WILPNNRMVFVLYTEQWWTF', 2.33),
  ('TPRCLGERTISGISFYKV', -1.04),
  ('LLVVRNLEGNNIHALVLCVG', 1.91),
  ('MAFYSTSLSFSEGGIRCSIY', 5.14),
  ('GVFMKYQ', 0.18),
  ('GPSWFGVPTAAFF', 0.502),
  ('GRVCKHIFK', 0.375),
  ('ALIFLGYMLRRRYWIYRLLS', 0.07),
  ('TSDNFCQCHCSFFQSWFGG', -0.27),
  ('KNFYDIKPLYALYSENLRLH', 0),
  ('KLLSTDNLYVQSYLFEDCNR', -0.544),
  ('KYDRCYYSRMNPSCVYIPYS', 2.47),
  ('LGSWARD', -0.27),
  ('VKIHASEVYFPMQSTYLMVD', 0.086),
  ('GGNKPCG', 2.11),
  ('GRVLDGRILLPVILSVWGCS', -0.563),
  ('ISTPIDDPKCLGSLVYFHQM', -0.693),
  ('RSYEDGALVVVGMRFGDRLR', 0.336),
  ('QVCRARMHMEVGAMGTFHAS', 0.521),
  ('HGLKWGFQLTNLSMLVTSCM', -0.475),
  ('HYRCVRGYSFFVLLCDSRIQ', -0.497),
  ('LWNGIFELAYLTGVYEFRYG', 2.07),
  ('GVLEVIYVSLFRGRAESVFR', 1.67),
  ('CYWSFKSAVAGPLSSESEGS', 4.4),
  ('SQSTLCSHTP', 1.13),
  ('HFLTDMNFKRARDSDLSSVW', 0.489),
  ('YFEWFVYLYSSRVFFLMLGR', -0.038),
  ('DIRLTMRVSSLSM', 0.566),
  ('VQNGGSLTMPRALLANTWMS', -0.671),
  ('LSSTSV', 0.425),
  ('TRHFLSIVLLEL', 1.78),
  ('GTREPDFGCKLDWDSY', 0.924),
  ('DAMWEMRVTTVRALARVCVC', 0.236),
  ('WVYHRQKSCAIFRAEIM', -0.088),
  ('FFNVVYLTRANASYTGYSNI', 5.41),
  ('FSHLKYNSVHFIPLRDFDSL', 0.938),
  ('VFLIDLLLTMCFFLYGAFLV', 0.76),
  ('VYKRFSTTMCLMTSSEWVDS', 2.45),
  ('RYVSVTGYDAQCRYCDKGTG', -0.326),
  ('FGMSRW', 0.166),
  ('MTALFGRVSG', -0.134),
  ('RLDIDFNGLRMFLNVFLMVV', -0.188),
  ('PMLGGRESEEPRVGWKVGWV', 0.377),
  ('HRGLSLLAGVSALVWKSQMT', -0.4),
  ('ANRNDCTQFTDSK', -0.41),
  ('KYLVLHILHIWMCHRYVWGM', -0.973),
  ('LVGSKSGVTRQRMALRWGGF', -0.285),
  ('VLLWVGLTYATGLGRRSSLF', -1.3),
  ('WEVERDTSSPSEIVINR', -0.063),
  ('ISLAVWGFSILLRIADCSMI', 0.123),
  ('EKFGRRCCSFGRSVSEWVTK', 0.999),
  ('RSSKGFMCMEMCLGWGQSTS', 3.41),
  ('ERYVLAPYQQTRRGNLQFRY', 0.615),
  ('SSSKLLR', -0.4),
  ('FYIILNVLFPRQVTCSDK', 5.7),
  ('VILFNSNTEYQKLEQLLELW', 0.153);

* * *

Assay: amyloid nucleation score (Sup35N fusion, yeast selection) (log enrichment); library NNK3; higher = more nucleation; inactive = no reads after selection
outcome measure: amyloid nucleation score

INSERT INTO results (substance, measurement) VALUES
  ('MYPLTVWIVLRLGDSFLK', 'inactive'),
  ('SFMKQIFSYARLVRISKSVG', 'inactive'),
  ('FSSRHVTPCIRINFNIVSCS', 'inactive'),
  ('YGFRVCYPQASMSTVVEHSR', 'inactive'),
  ('YEKYDTKVWNCG', 'inactive'),
  ('RDEVLNSHFIVGSRMRSNVA', 1.31),
  ('SVWRECNGKFVSFASHFADY', 'inactive'),
  ('QQFVTFVIFKYTVSVAMGAG', -0.478),
  ('HRDYFFRPTFL', 'inactive'),
  ('EVLEFVSNGGMVTEMGP', 'inactive'),
  ('VSCDEMHKINFYLKANVVLV', 'inactive'),
  ('AFVRMLW', 1.49),
  ('STSVSLTWNPKKRLYYLLTI', 'inactive'),
  ('LYRVVYFDALKNCGYVVSFW', 'inactive'),
  ('KNIPFYIGWVEVSTAGARYP', 'inactive'),
  ('FCWVLCTP', 'inactive'),
  ('SHFTEFPYLGLHTYAVVE', 'inactive');

* * *

Test: amyloid nucleation score (Sup35N fusion, yeast selection) (log enrichment); library NNK3; higher = more nucleation; inactive = no reads after selection
outcome measure: amyloid nucleation score

INSERT INTO results (substance, measurement) VALUES
  ('LNTKEYLLYKRICTSNANLL', -0.621),
  ('GDHSDWRKRGSLLNGVVLCV', -0.5),
  ('AGGAMGVHRCPLLS', 'inactive'),
  ('FHWYFAVSYTSYNMLSVWFV', 'inactive'),
  ('LVEHVEVCVIYCSCDCFSSV', 1.86),
  ('GGFRISHSIC', 'inactive'),
  ('PLWHTWFGYAE', 0.494),
  ('DVRFVRDAGAVFLIILSERH', 'inactive'),
  ('GLVSGGVFMMADMSRILKGK', 'inactive'),
  ('DSCAIES', 'inactive'),
  ('IGRISMAIMWIGVGVA', 'inactive'),
  ('RYILRSL', 'inactive'),
  ('GISALSVWFCISDRRSDQDH', 2.63),
  ('IVGLSHDAINTYLWVVVNAP', 'inactive'),
  ('SKSFVYPVNVCRRWLAVLGN', 'inactive'),
  ('VTRISGTETSDVYINI', 0.101),
  ('YFGNSGWDHGWPVVHKMSFS', 'inactive');

* * *

Assay: amyloid nucleation score (Sup35N fusion, yeast selection) (log enrichment); library NNK1; higher = more nucleation; inactive = no reads after selection
Outcome label depends on amyloid nucleation score relative to 0.3: at/above gives yes (1), below gives no (0).

INSERT INTO assay_data (substance, label_value) VALUES
  ('MCILTRRFGLMGWNTHYKS', 'no (0)'),
  ('RIFYFPSLRRKGDYNWRMVV', 'no (0)'),
  ('LSFMMRGSIHWPLTTLRACS', 'yes (1)'),
  ('QNFWALGPIRRIYFVNVITN', 'yes (1)'),
  ('IECMAMCHSVRSCCGSIYDC', 'no (0)'),
  ('ILPCFDANIIQDP', 'no (0)'),
  ('PPGIRAYM', 'no (0)'),
  ('FMATNTKAMGPLRSAK', 'no (0)'),
  ('NIFIFTVSHKPNY', 'yes (1)'),
  ('IRHNTRRSSIRTET', 'no (0)'),
  ('ISRPSSSGRLHVVMTSSNAR', 'yes (1)'),
  ('FLWSIICSYSQLY', 'no (0)'),
  ('DVSNTVFFTLLYLLGPRCRS', 'yes (1)'),
  ('GSWQDSRRNFWSGRGMFERV', 'yes (1)'),
  ('YKKRMLSLWYYGAGIQHRAL', 'yes (1)'),
  ('THFTTYYYWSQWGLWLSFCQ', 'yes (1)'),
  ('PLVNVYSSAYYSRHLKGLCV', 'no (0)'),
  ('YWAIVW', 'no (0)'),
  ('NYNTIWMMKWFNGRWFLSAV', 'no (0)'),
  ('VLANDVVPNSIYKKVSITYC', 'yes (1)'),
  ('DCDRYNGLCHLCCIQWHL', 'yes (1)'),
  ('ACLGVTRGYSGPSTTKSFLR', 'no (0)'),
  ('ETRTHWVRLAANNNFH', 'no (0)'),
  ('YAAGGIRKSVGSTVRSPWGA', 'yes (1)'),
  ('RGVYVWKGSSLH', 'no (0)'),
  ('QECMKLNLAFYWSDCVVRSF', 'yes (1)'),
  ('AYGKRTNTRICDNKTLGVSS', 'no (0)'),
  ('IGESDNG', 'no (0)'),
  ('MDKEESRCVELSLMSVSVMG', 'yes (1)'),
  ('LLMAIVCIMIRQGFLRHVSP', 'no (0)'),
  ('SRLRCMEH', 'yes (1)'),
  ('FCCCNRLYQGRELWVKLVNR', 'yes (1)'),
  ('RWCWWFFSSYAFFRSNISWV', 'no (0)');

Values from the supplement of paper PMC12042874
